Source of measurements: ChEMBL document CHEMBL1201862

system: CAKI-1; assay: NCI tumour cell line growth inhibition, 48 h
Activity calls are given as the source filed them. No stated cut-off is given here; in the data, active = GI50 up to about 1.1 µM and inactive = higher.
QUANTITY NAME: GI50

> print(dat)
                                   compound  quantity.name      measured.result
1     Cc1c2cnccc2c(C)c2c1c1ccccc1n2CCCCCCCl           GI50   > 50 µM (inactive)
2  COC(=O)C(N)CCCC(N)C(=O)NC(C)C(=O)NC(CCC(=O)NCCCNc1ccc([N+](=O)[O-])c2[nH]c3ccccc3c(=O)c12)C(N)=O (stereo not given)           GI50   6.64 µM (inactive)
3  COC(=O)[C@]12CC[C@H]3CN(C(=O)OCc4ccccc4)[C@H]([C@H]31)[C@H](C(=O)OCC[Si](C)(C)C)N2S(=O)(=O)c1ccc(C)cc1           GI50  > 100 µM (inactive)
4             COc1cc2ccnc3c2c(c1OC)N(C)C=C3           GI50   21.3 µM (inactive)

Input line: Quote GI50 with test system CAKI-1 for CCNc1cc2c(cc1O)CC[C@@H]1[C@@H]2CC[C@]2(C)[C@@H](O)CC[C@@H]12
Output line: 13.5 µM (inactive)

----------
test system: HCT-15
Each entry below lists one item and its recorded GI50 value.
Provide the reading as a plain figure in µM.

> print(dat)
                                   compound  measured.result
1  CC(=O)N1C(Nc2cccc3nc(C)ccc23)CCN1c1ccccc1 (stereo not given)             7.98
2  C=CCc1cccc2cc(C(=O)Nc3nc(C45CC6CC(CC(C6)C4)C5)cs3)c(=O)oc12               67
3  C=C1CC2(CCCC3(CC(=C)C(=O)O3)C2(C)C)OC1=O (stereo not given)            0.491
4   CN(C)CCNc1ccc(CO)c2oc3ccc(O)cc3c(=O)c12             14.4

Input line: In one line, give reported GI50 of the entry O=[N+]([O-])C=C1c2ccccc2-c2ccccc21 .
Output line: 19.1

----------
test system: Malme-3M; assay: NCI tumour cell line growth inhibition, 48 h
The source made the active and inactive calls. Rule as the data show it: active = GI50 up to about 1.1 µM and inactive = higher.
Choose one outcome from this list and give only that: True (active), False (inactive)

Example cases with answers are listed next.
> print(dat)
                                   compound  assigned.class
1  COc1cccc2c1C(=O)c1c(O)c3c(c(O)c1C2=O)C[C@@](O)(C(C)=O)C[C@@H]3OC1OC(C)C(O)C(N)C1Br (some centres undefined)            True
2  O=c1c2cc(-c3ccccc3)sc2nc2n1N=C(c1ccc(Cl)cc1)CS2           False

Input line: What was the test verdict on COC(=O)C1Cc2c(n(C)c3ccccc23)C(CCC(=O)O)N1Cc1ccccc1 (centres undefined) ?
Output line: False

Input line: What classification did Cc1ccc(C(=O)Nc2ccc(CP(=O)(O)O)cc2)cc1NC(=O)c1cccc(N)c1 end up with in this test?
Output line: False

----------
system: OVCAR-8; assay: NCI tumour cell line growth inhibition, 48 h
Calls of active or inactive are those of the source. Cut-off read from the data, not from the text of the source: active = GI50 up to about 1.1 µM and inactive = higher.
QUANTITY NAME: GI50

Worked cases, answers included:
> print(dat)
                                   compound  quantity.name      measured.result
1  O=C1/C(=C/c2ccc(Cl)cc2)CCC1CCN1CCOCC1 (stereo not given)           GI50  > 100 µM (inactive)
2  C=C1c2c(n(S(=O)(=O)c3ccccc3)c3ccccc23)[C@@]2(C(=O)OC)CC3C=CC2N1C3           GI50  > 100 µM (inactive)
3         CS(=O)(=O)c1nc(Cl)c(Cl)c(C#N)c1Cl           GI50   2.88 µM (inactive)

Input line: Fill in reported GI50 for this entry: Cc1cccc(C(C)(C)C)c1NC(=O)CC1C(=O)Nc2ccccc2[S+]1[O-] (stereo not given)
Output line: 97.1 µM (inactive)

Input line: Check the records and state GI50 for C=CC(Cl)(CBr)CCC(Br)=C(C)C (stereo not given)
Output line: 24.9 µM (inactive)

Input line: Output GI50 of CC(C)C1OC(=O)/C=C/C=C/C=C/C=C/C=C/CC(O)CC(O)CC(O)CC(O)CC(O)CC(O)CC(O)CC(O)/C=C/C1C (stereo not given)
Output line: > 100 µM (inactive)

Input line: Note down GI50 recorded for O=C1C(/C=C/c2ccc(Cl)cc2)=NNC2N1N=C1NC(=O)C3(NN12)c1ccccc1-c1ccccc13 (stereo not given)
Output line: > 100 µM (inactive)

Input line: Return value of GI50 for input CC[C@@H](C)[C@@H]1NC(=O)C(C(C)=O)=C1O , no commentary.
Output line: 24.9 µM (inactive)

----------
tested on: CAKI-1; assay: NCI tumour cell line growth inhibition, 48 h
Activity calls are given as the source filed them. Rule as the data show it: active = GI50 up to about 1.1 µM and inactive = higher.
Below, each of the compounds is paired with its reported GI50 value.

Answered examples (2):
> print(dat)
                                   compound  quantity.name      measured.result
1  Cc1nc(-n2nc(-c3ccccc3)cc2-c2ccccc2)sc1C(/C=C/c1ccc([N+](=O)[O-])cc1)=N/NC(N)=S           GI50   60.3 µM (inactive)
2  CC(C)C1OC(=O)/C=C/C=C/C=C/C=C/C=C/CC(O)CC(O)CC(O)CC(O)CC(O)CC(O)CC(O)CC(O)/C=C/C1C (stereo not given)           GI50  > 100 µM (inactive)

Input line: Recall the reported GI50 of N#Cc1ncc(C(Cl)Cl)nc1Cl when tested on CAKI-1.
Output line: 1.4 µM (inactive)

Input line: Please indicate recorded GI50 of CN(C)C(=S)C(Cl)(c1ccccc1)c1ccccc1 measured with CAKI-1.
Output line: > 100 µM (inactive)

Input line: Report the value of GI50 obtained on CAKI-1 for CSc1c(C(N)=S)c(N)nn1-c1ccccc1 .
Output line: > 100 µM (inactive)

----------
tested on: OVCAR-5; assay: NCI tumour cell line growth inhibition, 48 h
Calls of active or inactive are those of the source. No stated cut-off is given here; in the data, active = GI50 up to about 1.1 µM and inactive = higher.
QUANTITY NAME: GI50

COMPOUND	MEASURED RESULT
Cc1cc(Oc2cnc(=O)[nH]c2)cs1	> 100 µM (inactive)
CCCC/C=C1\CCC(CN2CCCCC2)C1=O (stereo not given)	34.7 µM (inactive)
Nc1nc2c(ncn2Cc2ccc(CO)cc2)c(=O)[nH]1	> 100 µM (inactive)
CCOC(=O)c1[nH]cc(C)c1-c1c[nH]c2ccccc12	39.7 µM (inactive)

Now look at this entry.
Input line: Fill in GI50 for record Cc1[nH]n(-c2nc3c(c(=O)[nH]2)CCCC3)c(=O)c1CCO
Output line: > 100 µM (inactive)

----------
test system: NCI-H226; test: NCI tumour cell line growth inhibition, 48 h
Active and inactive are the calls of the source. Cut-off read from the data, not from the text of the source: active = GI50 up to about 1.1 µM and inactive = higher.
Give one outcome, nothing more. List: active, inactive

Worked cases, answers included:
> print(dat)
                                   compound  assigned.class
1  N#Cc1c(N)nc(SCc2ccccc2)c(C#N)c1-c1ccc(O)cc1        inactive
2  O=C1N/N=C\c2ccc(cc2)OCc2cccc(n2)COc2ccc(cc2)/C=N\NC1=O        inactive

Input line: Hello, I am checking results. What call was entered for CN(C)CCNc1ccc(CO)c2oc3ccc(O)cc3c(=O)c12 ?
Output line: inactive

Input line: Identify the outcome logged in this assay for the compound shown: CCCCC(=O)OC[n+]1ccc2c(C)c3[nH]c4ccccc4c3c(C)c2c1
Output line: active

Input line: I'd appreciate the recorded outcome for Nc1nc2c(ncn2Cc2ccc(CO)cc2)c(=O)[nH]1 from this test.
Output line: inactive

----------
test system: PC-3; test: NCI tumour cell line growth inhibition, 48 h
The source made the active and inactive calls. Rule as the data show it: active = GI50 up to about 1.1 µM and inactive = higher.
Respond using exactly one of the listed classes: class 1 for active, class 0 for inactive

// below: answered molecules
> print(dat)
                                   molecule  assigned.class
1  Oc1ccc(-c2nc(-c3ccc4ccccc4n3)c(-c3ccc(F)cc3)[nH]2)cc1         class 0
2  Nc1nc(N)c2nc(CNc3ccc(C(=O)NC(CCCNC(=O)c4ccccc4C(=O)O)C(=O)O)cc3)cnc2n1 (stereo not given)         class 1
3  CCNc1cc2c(cc1O)CC[C@@H]1[C@@H]2CC[C@]2(C)[C@@H](O)CC[C@@H]12         class 0
4  C=CC(C)(C)N[C@@H](C(=O)N1CCC[C@H]1c1nc(-c2nc(C(=O)OCC=C(C)C)c(C)o2)c(C)o1)C(C)C         class 0

Then this molecule:
Input line: Test call, this molecule: CCc1cc(=O)n(/C(C)=C/c2ccccc2)n1C
Output line: class 0
